Biological target: Serine/threonine-protein kinase OSR1 (Homo sapiens)
Sequence (O95747 whole entry): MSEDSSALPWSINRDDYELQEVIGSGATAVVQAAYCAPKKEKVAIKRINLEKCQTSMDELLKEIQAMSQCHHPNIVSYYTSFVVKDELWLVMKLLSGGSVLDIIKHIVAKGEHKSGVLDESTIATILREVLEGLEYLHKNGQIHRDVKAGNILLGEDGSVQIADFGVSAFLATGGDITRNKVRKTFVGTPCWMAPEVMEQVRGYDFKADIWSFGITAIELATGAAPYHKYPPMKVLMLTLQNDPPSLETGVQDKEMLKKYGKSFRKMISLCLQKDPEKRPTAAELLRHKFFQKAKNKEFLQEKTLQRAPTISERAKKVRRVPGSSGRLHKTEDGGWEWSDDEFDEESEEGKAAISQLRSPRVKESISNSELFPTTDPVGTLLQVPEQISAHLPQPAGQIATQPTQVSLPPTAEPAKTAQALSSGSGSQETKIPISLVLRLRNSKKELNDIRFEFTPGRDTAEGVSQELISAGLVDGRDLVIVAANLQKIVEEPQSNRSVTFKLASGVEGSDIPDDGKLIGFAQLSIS
Measurement label: pIC50
pIC50 is a log-scale quantity: -log10 of the concentration expressed in molar.

Prompt: Entry under review: `CN1C(=O)[C@@H](N2CCc3c(nn(Cc4ccccc4)c3Br)C2=O)COc2ccccc21` . Reported pIC50?
Response: 6.00

* * *

Molecular target: Fibroblast growth factor receptor 4 (Homo sapiens)
Sequence (P22455 whole entry): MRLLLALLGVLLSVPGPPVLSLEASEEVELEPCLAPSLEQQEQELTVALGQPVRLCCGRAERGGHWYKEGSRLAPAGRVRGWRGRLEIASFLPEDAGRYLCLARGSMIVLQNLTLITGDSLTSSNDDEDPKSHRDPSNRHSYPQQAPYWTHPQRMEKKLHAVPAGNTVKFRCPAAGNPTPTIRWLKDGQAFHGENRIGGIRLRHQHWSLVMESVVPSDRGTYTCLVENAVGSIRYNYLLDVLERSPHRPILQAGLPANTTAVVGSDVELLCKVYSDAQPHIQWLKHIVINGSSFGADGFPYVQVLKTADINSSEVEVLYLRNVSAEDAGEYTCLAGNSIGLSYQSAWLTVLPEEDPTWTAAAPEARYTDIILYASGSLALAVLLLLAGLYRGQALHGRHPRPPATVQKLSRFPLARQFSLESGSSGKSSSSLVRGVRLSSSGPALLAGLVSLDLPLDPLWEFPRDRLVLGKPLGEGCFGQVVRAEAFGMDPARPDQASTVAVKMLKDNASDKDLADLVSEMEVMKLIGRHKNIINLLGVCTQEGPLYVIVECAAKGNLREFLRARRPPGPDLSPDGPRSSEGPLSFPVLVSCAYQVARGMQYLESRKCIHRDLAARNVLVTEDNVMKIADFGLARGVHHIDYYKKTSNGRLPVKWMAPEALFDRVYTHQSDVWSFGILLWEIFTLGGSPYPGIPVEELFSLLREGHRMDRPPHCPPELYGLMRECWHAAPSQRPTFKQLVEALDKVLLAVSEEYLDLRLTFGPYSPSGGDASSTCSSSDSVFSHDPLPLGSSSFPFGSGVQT
Measurement label: IC50 (nM)
Quick note: give the figure in nM, leave out the unit.

Prompt: Entry under review: CN1C(=O)[C@@H](N2CCc3c(nn(Cc4ccccc4)c3Br)C2=O)COc2ccccc21 [TP-030-2] . Reported IC50?
Response: 1000

* * *

Target: Dual specificity mitogen-activated protein kinase kinase 1 (Homo sapiens, UniProt Q02750)
Sequence (Q02750 whole entry): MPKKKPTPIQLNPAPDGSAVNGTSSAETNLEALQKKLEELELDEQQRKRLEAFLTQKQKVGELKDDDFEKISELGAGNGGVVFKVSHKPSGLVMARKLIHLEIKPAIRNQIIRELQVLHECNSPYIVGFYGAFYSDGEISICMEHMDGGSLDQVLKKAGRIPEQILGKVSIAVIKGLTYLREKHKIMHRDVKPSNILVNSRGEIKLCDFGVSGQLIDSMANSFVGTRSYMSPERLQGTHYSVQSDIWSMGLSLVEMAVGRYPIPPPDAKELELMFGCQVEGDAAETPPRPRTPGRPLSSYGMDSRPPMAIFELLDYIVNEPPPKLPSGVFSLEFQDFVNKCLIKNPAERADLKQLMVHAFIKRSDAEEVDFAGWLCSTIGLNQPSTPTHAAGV
Assay: MEK1 [MAP2K1(M2K1LGF1)] Takeda global kinase panel
Measurement label: IC50 (µM)
Quick note: give the figure in µM, leave out the unit.

Prompt: Find IC50 (Dual specificity mitogen-activated protein kinase kinase 1 (Homo sapiens, UniProt Q02750)) for the entry CN1C(=O)[C@@H](N2CCc3c(nn(Cc4ccccc4)c3Br)C2=O)COc2ccccc21 [TP-030-2]
Response: 1

Attribution: ChEMBL document CHEMBL4507326
